Tested on: E. coli (7MP)
reported.metric: MIC (µg/mL)
Supply the numeric figure in µg/mL, leaving out any unit text.

Name the recorded MIC for CO/N=C(\C(=O)N[C@@H]1C(=O)N2C(C(=O)[O-])=C(C[N+]3(C)CCCC3)CS[C@H]12)c1csc(N)n1 [Cefepime] . 16

Now give it for C[C@@H](O)[C@H]1C(=O)N2C(C(=O)O)=C(SCCN=CN)C[C@H]12 [Imipenem] too. 1

Can you handle NC[C@@H]1CC[C@@H]2CN1C(=O)N2OS(=O)(=O)O [Compound (XI)] next? 4

---

Tested on: E. coli (NCTC 13353)
reported.metric: MIC

I'd like to know its MIC. The compound in question is CC(C)(O/N=C(\C(=O)N[C@@H]1C(=O)N2C(C(=O)[O-])=C(C[n+]3ccccc3)CS[C@H]12)c1csc(N)n1)C(=O)O [Ceftazidime] > 32 µg/mL

Thanks! And C[C@@H](O)[C@H]1C(=O)N2C(C(=O)O)=C(SCCN=CN)C[C@H]12 [Imipenem] ? 0.25 µg/mL

Similarly, NC[C@@H]1CC[C@@H]2CN1C(=O)N2OS(=O)(=O)O [Compound (XI)] ? 1 µg/mL

Another compound to check: CO/N=C(\C(=O)N[C@@H]1C(=O)N2C(C(=O)[O-])=C(C[N+]3(C)CCCC3)CS[C@H]12)c1csc(N)n1 [Cefepime] > 32 µg/mL
